src = patent US20240415914A1

# Assay type: physicochemical
# reported conditions: stored at room temperature (21-25° C.), day 60
Record T whenever Stability in Powder Concentrate (content by LCMSMS) is at 0.5 mg/g powder or higher; record F when lower.

Would you please look over these solved cases?
INSERT INTO assay_data (molecule, qualitative_label) VALUES
  ('CCCCCc1cc(O)c(C/C=C(\C)CCC=C(C)C)c(O)c1 [CBG, cannabigerol]', 'T'),
  ('Cc1c(C)c2c(c(C)c1O)CC[C@@](C)(CCC[C@H](C)CCC[C@H](C)CCCC(C)C)O2 [α-Tocopherol]', 'T');

Exercise: Please check the record CC(=O)Oc1c(C)c(C)c2c(c1C)CCC(C)(CCC[C@H](C)CCC[C@H](C)CCCC(C)C)O2 (stereo partly drawn) [α-Tocopheryl acetate] and state if its Stability in Powder Concentrate (content by LCMSMS) is at or above 0.5 mg/g powder.
Key: T

Exercise: Please check the record CCCCCc1cc(O)c2c(c1)OC1(C)CCC3C1C2C3(C)C (centres unmarked) [CBL, cannabicyclol] and state if its Stability in Powder Concentrate (content by LCMSMS) is at or above 0.5 mg/g powder.
Key: F

Exercise: Please check the record CCCCCc1cc(O)c2c(c1)OC(C)(CCC=C(C)C)C=C2 (centres unmarked) [CBC, cannabichromene] and state if its Stability in Powder Concentrate (content by LCMSMS) is at or above 0.5 mg/g powder.
Key: F

Exercise: Please check the record C=C(C)[C@@H]1CCC(C)=C[C@H]1c1c(O)cc(CCCCC)c(C(=O)O)c1O [CBDA, cannabidiolic acid] and state if its Stability in Powder Concentrate (content by LCMSMS) is at or above 0.5 mg/g powder.
Key: F

Exercise: Please check the record CCCc1cc(O)c2c(c1)OC(C)(C)[C@@H]1CCC(C)=C[C@@H]21 [THCV, delta-9-tetrahydrocannabivarin] and state if its Stability in Powder Concentrate (content by LCMSMS) is at or above 0.5 mg/g powder.
Key: T
